# Target or system: recombinant human ALK5 (TGF-βR1) protein (Homo sapiens)
# Sequence (P36897 34-503): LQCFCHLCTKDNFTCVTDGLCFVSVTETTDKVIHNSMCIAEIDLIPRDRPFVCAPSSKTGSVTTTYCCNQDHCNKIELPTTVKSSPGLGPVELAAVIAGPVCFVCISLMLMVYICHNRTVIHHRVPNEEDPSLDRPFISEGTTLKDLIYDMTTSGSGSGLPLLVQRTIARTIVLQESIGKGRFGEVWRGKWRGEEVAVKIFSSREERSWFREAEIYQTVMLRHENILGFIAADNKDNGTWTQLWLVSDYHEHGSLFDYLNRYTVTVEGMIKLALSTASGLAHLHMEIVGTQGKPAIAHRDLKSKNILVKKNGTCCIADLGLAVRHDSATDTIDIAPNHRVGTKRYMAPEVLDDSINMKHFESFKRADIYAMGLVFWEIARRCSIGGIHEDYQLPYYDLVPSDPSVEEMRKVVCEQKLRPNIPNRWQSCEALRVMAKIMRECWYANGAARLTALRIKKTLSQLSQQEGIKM
# Method summary: Biochemical ALK5 (TGF-βR1) assay to measure pKi (LANCE Ultra ULight kinase assay)
# Test parameters: apparent pKi, converted from pIC50 using the Cheng-Prusoff equation
pKi: −log10 of the molar value.
Endpoint: pKi

Q: What value of pKi has been reported for the following compound? `CNCCn1cc(-c2cnc3ccc(-c4nc[nH]c4-c4ccc(F)c(F)c4)cc3c2)cn1`
A: 9.50 to 10.40

----------
The reader will find reported IC50 values listed item by item below.
# System: TGF-β-stimulated SMAD3 phosphorylation in BEAS-2B cells
# Method summary: Cellular ALK5 potency assay, inhibition of TGF-β stimulated pSMAD3 formation in BEAS-2B cells
# Type: cell-based
# Test parameters: Homo sapiens, inhibition of TGF-β (10 ng/mL) stimulated pSMAD3 formation, 1 hour compound incubation, read-out: BEAS2B pIC50 (converted)

// below: answered compounds
- Compound: "Fc1ccc(Cl)cc1-c1n[nH]cc1-c1ccc2ncc(N3CCC(N4CCCCC4)C3)cc2n1 (racemic) [Compound 1-39]"
  IC50: "≤ 0.02 µM"
- Compound: "Fc1cc(F)c(-c2n[nH]cc2-c2ccc3ncc(-c4cn(Cc5cnc6c(c5)CNCC6)nn4)cc3n2)cc1Cl [Compound 6-63]"
  IC50: "0.0251 to 0.158 µM"
- Compound: "CC(C)N1CCN(CCNc2cnc3ccc(-c4nc[nH]c4-c4cc(Cl)c(F)cc4F)nc3c2)CC1 [Compound 7-2]"
  IC50: "0.0251 to 0.158 µM"

Q: Data request, read-out IC50, for COC(=O)c1cnc2ccc(-c3c(-c4cc(Cl)ccc4F)nnn3Cc3ccccc3)nc2c1 [Compound 4-2]
A: 0.2 to 1.26 µM

Q: Could you tell me which IC50 is on file for CC(C)N1CC=C(c2cnc3ccc(-c4c[nH]nc4-c4cc(Cl)c(F)cc4F)nc3c2)C1 [Compound 6-44] ?
A: ≤ 0.02 µM

Q: Look at this compound and give its reported IC50. COCc1cccc(-c2n[nH]cc2-c2ccc3ncc(N4CCC(N(C)C)CC4)cc3n2)c1 [Compound 14-7]
A: 0.0251 to 0.158 µM

Q: Need IC50, item Cn1cccc(-c2cnc3ccc(-c4c[nH]nc4-c4ccc(F)c(F)c4)nc3c2)c1=O [Compound 8-16]
A: 0.0251 to 0.158 µM

Q: Requested read-out: IC50. Entry: Fc1ccc(Cl)cc1-c1n[nH]cc1-c1ccc2ncc(N3CCn4nc(Br)nc4C3)cc2n1 [Compound 1-48]
A: ≤ 0.02 µM

Q: For the compound CC(C)N1CCCN(c2cnc3ccc(-c4c[nH]nc4-c4cc(Cl)ccc4F)nc3c2)CC1C (racemic) [Compound 1-82] , what IC50 is on record?
A: 0.0251 to 0.158 µM

Q: Value lookup for IC50; key = CNC1CCN(c2cnc3ccc(-c4c[nH]nc4-c4cc(Cl)ccc4F)nc3c2)C1 (stereo not drawn) [Compound 1-56]
A: ≤ 0.02 µM

Q: # get_value(readout='IC50', item= CN1CCN(C2CCN(c3cnc4ccc(-c5c[nH]nc5-c5ccc(F)c(F)c5)nc4c3)CC2)CC1 [Compound 8-3] )
A: 0.0251 to 0.158 µM
